For each of the compounds below, state its CC50 at 3 days.
test: in vitro; settings: human

Using known records, supply CC50 at 3 days for CC1c2ccsc2CCN1C(=O)c1cc(C2CC2)c2nc(-c3ccc(NC(=O)N4CC[C@@H](O)C4)cc3F)cn2n1 (single isomer, unassigned) [Compound 38]
35.9 µM

Please supply the value of reported CC50 at 3 days for the item CCc1cc(C(=O)N2CCc3ccccc3[C@H]2C)nn2cc(-c3ccc4c(c3F)C=C(C(N)=O)CO4)nc12 [Compound 45]
> 100 µM

Tell me measured CC50 at 3 days for C[C@@H]1c2ccccc2CCN1C(=O)c1cc(N2CCCC2)c2nc(-c3ccc(N4CC[C@H](C(N)=O)C4)cc3F)cn2c1 [Compound 20] please.
> 100 µM

---

experiment: in vitro; conditions: human
Would you kindly list CC50 at 3 days for each of these compounds?
Give the number; µM is assumed, so skip it.

Report CC50 at 3 days for CCc1cc(C(=O)N2CCc3ccccc3[C@H]2C)nn2cc(-c3ccc(N4CC(O)C4)cc3F)nc12 [Compound 35]
16.3

Output measured CC50 at 3 days for this item: CCc1cc(C(=O)N2CCc3sc(F)cc3C2C)nn2cc(-c3ccc(NC(=O)N4CC[C@@H](O)C4)cc3F)nc12 (single isomer, unassigned) [Compound 40]
29.9

In one line, give reported CC50 at 3 days of the entry C[C@@H]1c2ccccc2CCN1C(=O)c1cc(C2CC2)c2nc(-c3ccc(N4C[C@H](O)[C@@H](O)C4)cc3F)cn2n1 [Compound 51] .
38

Consider the compound C[C@@H]1c2ccccc2CCN1C(=O)c1cc(C2CC2)c2nc(-c3ccc(N4CC[C@H](C(=O)O)C4)cc3F)cn2c1 [Compound 9] . State its measured CC50 at 3 days.
68.4

Please list CC50 at 3 days recorded for the compound C[C@@H]1c2ccccc2CCN1C(=O)c1cc(C2CC2)c2nc(-c3ccc(C4C[C@@H]4C(=O)O)cc3F)cn2c1 (relative stereo) [Compound 6]
56.2

---

assay: in vitro; conditions: human
value.kind: CC50 at 3 days (µM)
The response must be a number in µM with no trailing unit.

Indicate its recorded CC50 at 3 days; the molecule in question is C[C@@H]1CCCCCN1C(=O)c1cc(C2CC2)c2nc(-c3ccc([C@H]4C[C@@H]4C(=O)O)cc3F)cn2n1
50.5

Answer with the recorded CC50 at 3 days for the molecule listed here: C[C@@H]1c2ccccc2CCN1C(=O)c1cc(C2CC2)c2nc(-c3ccc(/C=C/C(=O)O)cc3F)cn2c1
49.9

Report measured CC50 at 3 days; entry is CCc1cc(C(=O)N2CCc3ccc(F)cc3C2C)nn2cc(-c3ccc(NC(=O)N4CC[C@@H](O)C4)cc3F)nc12 (single isomer, unassigned)
26.8

Specify measured CC50 at 3 days for C[C@@H]1c2ccccc2CCN1C(=O)c1cc(C2CC2)c2nc(-c3ccc(N4CC(O)C4)cc3F)cn2c1 .
98.1

For the molecule C[C@@H]1c2ccsc2CCN1C(=O)c1cc(C2CC2)c2nc(-c3ccc(N4CC[C@H](C(N)=O)C4)cc3F)cn2c1 (single isomer, unassigned) , give its measured CC50 at 3 days value.
77.1

Please list CC50 at 3 days recorded for the molecule C[C@@H]1c2ccccc2CCN1C(=O)c1cc(C2CC2)c2nc(-c3ccc(-n4cc(C(=O)O)cn4)cc3F)cn2c1
51.3
